Catalogue of kon values
system_name: T1, cSNK:BSA conjugate (bovine, head-to-tail cyclized; conjugated to BSA carrier)
T1 construct: also called BSA-cSNK
measurement_notes: BLI 2:1 fit, site 1; 1.56 nM row
Report the value in M⁻¹ s⁻¹ with no unit label.

{"binder": "hu5E3-IgG1 (antibody, V domains shown, human IgG1/kappa; also called humanized 5E3 IgG1; IHA variant) VH: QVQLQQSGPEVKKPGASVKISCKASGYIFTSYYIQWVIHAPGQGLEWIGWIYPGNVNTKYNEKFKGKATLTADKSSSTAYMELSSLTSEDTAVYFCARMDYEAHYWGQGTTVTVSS VL: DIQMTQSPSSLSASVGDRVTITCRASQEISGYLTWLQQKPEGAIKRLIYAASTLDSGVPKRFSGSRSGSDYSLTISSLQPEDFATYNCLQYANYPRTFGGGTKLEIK", "kon (M⁻¹ s⁻¹)": "1.78e+06"}
{"binder": "murine monoclonal antibody 5E3 (antibody, V domains shown, mouse antibody of the 5E3 hybridoma; also called murine 5E3; m5E3) VH: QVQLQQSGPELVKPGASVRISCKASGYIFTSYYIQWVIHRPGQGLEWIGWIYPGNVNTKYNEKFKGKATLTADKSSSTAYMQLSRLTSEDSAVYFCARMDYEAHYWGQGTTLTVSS VL: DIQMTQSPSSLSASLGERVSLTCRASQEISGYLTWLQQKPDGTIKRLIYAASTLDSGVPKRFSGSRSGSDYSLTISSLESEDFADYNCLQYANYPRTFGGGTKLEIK", "kon (M⁻¹ s⁻¹)": "1.29e+06"}
{"binder": "hu5E3-IgG4 (antibody, V domains shown, human IgG4/kappa; also called humanized 5E3 IgG4) VH: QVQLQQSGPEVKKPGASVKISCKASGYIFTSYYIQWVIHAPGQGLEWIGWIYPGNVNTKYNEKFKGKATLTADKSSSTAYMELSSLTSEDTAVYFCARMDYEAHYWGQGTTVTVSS VL: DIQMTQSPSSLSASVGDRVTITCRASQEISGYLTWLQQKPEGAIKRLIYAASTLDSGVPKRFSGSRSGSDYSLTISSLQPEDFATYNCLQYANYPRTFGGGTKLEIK", "kon (M⁻¹ s⁻¹)": 868000}

Recorded kon for rehu5E3-IgG4 (antibody, V domains shown, human IgG4/kappa; also called IgG4 rehu version) VH: QVQLQQSGPEVVKPGASVKISCKASGYIFTSYYIQWVIHAPGQGLEWIGWIYPGNVNTKYNEKFKGKATLTADKSSSTAYMELSSLRSEDSAVYFCARMDYEAHYWGQGTLVTVSS VL: DIQMTQSPSSLSASLGDRVTLTCRASQEISGYLTWLQQKPEKAIKRLIYAASTLDSGVPKRFSGSRSGSDYTLTISSLQPEDFADYNCLQYANYPRTFGGGTKLEIK , please?
692000

Ref: patent US20170008955A1
